species: Rattus norvegicus; experiment: DrugMatrix - Regimen: Daily Repeat; format: toxicity, organism-based, Sprague-Dawley; design: regimen Daily Repeat, gender Male, age 6-8 weeks; settings: in vivo, po, 0 mg/kg, 72 h, tissue Blood, route oral GAVAGE, dose level Control, time 3 day, […]
observable: HEMOGLOBIN (G/DL)
Give bare numbers, in G/DL.

1) O=C(O)COC(=O)Cc1ccccc1Nc1c(Cl)cccc1Cl [ACECLOFENAC] : 13.27

Could you tell me HEMOGLOBIN for each of these compounds? They are listed below.
1. CCC(C)(C)C(=O)O[C@H]1C[C@@H](C)C=C2C=C[C@H](C)[C@H](CC[C@@H]3C[C@@H](O)CC(=O)O3)[C@H]21 [SIMVASTATIN]
2. CS(=O)(=O)c1ccc(C2=C(c3ccccc3)C(=O)OC2)cc1 [ROFECOXIB]
3. COC(=O)Nc1nc2ccc(C(=O)c3ccccc3)cc2[nH]1 [MEBENDAZOLE]
4. CC(C)(c1ccc(O)cc1)c1ccc(O)cc1 [BISPHENOL A]
5. CCOC(=O)C1=C(C)NC(C)=C(C(=O)OCC)C1c1ccccc1/C=C/C(=O)OC(C)(C)C [LACIDIPINE]
6. CC#C[C@]1(O)CC[C@H]2[C@@H]3CCC4=CC(=O)CCC4=C3[C@@H](c3ccc(N(C)C)cc3)C[C@@]21C [MIFEPRISTONE]
7. CO[C@H]1O[C@@H]2O[C@@]3(C)CC[C@H]4[C@H](C)CC[C@@H]([C@H]1C)[C@@]24OO3

1. 12.87
2. 12.98
3. 13.27
4. 12.95
5. 13.23
6. 12.87
7. 13.65

The measurements presented in this section are drawn from ChEMBL document CHEMBL3885881.
